Data origin: patent US12303509B2

# ASSAY_SYSTEM: BCRP (Homo sapiens (Human))
# Sequence (Q9UNQ0 whole entry): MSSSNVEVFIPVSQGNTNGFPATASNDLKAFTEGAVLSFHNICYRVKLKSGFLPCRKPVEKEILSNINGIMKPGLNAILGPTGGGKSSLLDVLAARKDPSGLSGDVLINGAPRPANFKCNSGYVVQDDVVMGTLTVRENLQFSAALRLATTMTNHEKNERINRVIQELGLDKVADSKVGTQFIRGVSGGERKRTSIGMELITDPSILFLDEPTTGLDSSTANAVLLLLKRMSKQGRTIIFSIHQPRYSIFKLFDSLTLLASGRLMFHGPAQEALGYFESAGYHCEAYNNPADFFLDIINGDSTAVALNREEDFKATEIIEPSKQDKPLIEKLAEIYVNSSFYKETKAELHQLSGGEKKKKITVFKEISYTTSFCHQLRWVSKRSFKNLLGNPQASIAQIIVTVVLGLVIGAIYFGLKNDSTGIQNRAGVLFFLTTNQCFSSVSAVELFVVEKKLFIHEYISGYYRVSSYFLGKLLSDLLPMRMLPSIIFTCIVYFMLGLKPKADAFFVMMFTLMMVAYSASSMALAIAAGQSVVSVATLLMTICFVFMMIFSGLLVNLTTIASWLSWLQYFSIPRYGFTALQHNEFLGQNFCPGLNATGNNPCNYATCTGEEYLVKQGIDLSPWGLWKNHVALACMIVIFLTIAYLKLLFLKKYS
# ASSAY_SUMMARY: BCRP MDCKII permeability assay: efflux ratio
# Type: in vitro ADME
# CONDITION: dog
Where a name gives a salt, the structure may show the parent alone.
# cutoff 1 applies to efflux ratio at 2 h, 1 µM; >= gives class 1, < gives class 0

Worked examples follow.
Cc1c(Nc2c(F)ccc(NS(=O)(=O)N3CC(C)(F)C3)c2Cl)ccc2ncn(C)c(=O)c12 [Example 155, trifluoroacetate]    class 1
Cn1cnc2ccc(Oc3c(F)ccc(NS(=O)(=O)N4CCCC4)c3Cl)c(Cl)c2c1=O [Example 39]    class 0
Cc1c(Nc2cc(Cl)cc(NS(=O)(=O)N3CC[C@@H](F)C3)c2F)ccc2ncn(C)c(=O)c12 [Example 103]    class 1

Task item: Textbook exercise: given the entry Cc1c(Nc2cc(F)cc(NS(=O)(=O)N3CCCC3)c2F)ccc2ncn(C)c(=O)c12 [Example 154] , state whether its efflux ratio at 2 h, 1 µM is greater than or equal to 1.
Reply: class 1

Task item: Try the compound Cn1cnc2ccc(Oc3c(F)ccc(NS(=O)(=O)N4CC[C@@H](OC(F)F)C4)c3Cl)c(Cl)c2c1=O [Example 60]
Reply: class 1

Task item: Try the compound CN(C)S(=O)(=O)Nc1ccc(F)c(Nc2ccc3ncn(C)c(=O)c3c2F)c1Cl [Example 83]
Reply: class 1

Task item: Try the compound Cc1c(Nc2c(F)ccc(NS(=O)(=O)N(C)C)c2Cl)ccc2ncn(C)c(=O)c12 [Example 71]
Reply: class 0

Task item: Try the compound COC1CN(S(=O)(=O)Nc2ccc(F)c(Nc3ccc4ncn(C)c(=O)c4c3C)c2Cl)C1 [Example 128, trifluoroacetate]
Reply: class 1

Task item: Try the compound Cc1c(Nc2c(F)ccc(NS(=O)(=O)N3CC4(CC4)C3)c2Cl)ccc2ncn(C)c(=O)c12 [Example 163, trifluoroacetate]
Reply: class 1

Task item: Try the compound Cn1cnc2ccc(Oc3c(F)ccc(NS(=O)(=O)N4CCC(F)(F)C4)c3Cl)c(F)c2c1=O [Example 63]
Reply: class 1

Task item: Try the compound Cc1c(Nc2c(F)ccc(NS(=O)(=O)N3CC(F)(F)C3)c2Cl)ccc2ncn(C)c(=O)c12 [Example 134]
Reply: class 1

Task item: Try the compound Cc1c(Nc2c(F)ccc(NS(=O)(=O)N3CCC4CC4C3)c2Cl)ccc2ncn(C)c(=O)c12 (centres unmarked) [Example 80]
Reply: class 0

Task item: Try the compound CO[C@@H]1CCN(S(=O)(=O)Nc2cc(F)c(F)c(Nc3ccc4ncn(C)c(=O)c4c3C)c2Cl)C1 [Example 99]
Reply: class 1

Task item: Try the compound CN(C)S(=O)(=O)Nc1ccc(F)c(Oc2ccc3ncn(C)c(=O)c3c2Cl)c1Cl [Example 110]
Reply: class 1

Task item: Try the compound Cc1c(Nc2c(F)ccc(NS(=O)(=O)N3CCC(F)(F)C3)c2Cl)ccc2ncn(C)c(=O)c12 [Example 93]
Reply: class 0

Task item: Try the compound Cn1cnc2ccc(Nc3c(F)ccc(NS(=O)(=O)N4CC(F)(F)C4)c3Cl)c(F)c2c1=O [Example 136]
Reply: class 1

Task item: Try the compound Cn1cnc2ccc(Nc3c(F)c(F)cc(NS(=O)(=O)N4CC5CC4C5)c3Cl)c(F)c2c1=O [Example 41, trifluoroacetate]
Reply: class 1

Task item: Try the compound Cc1c(Nc2c(F)ccc(NS(=O)(=O)N3CC4C(F)C4C3)c2Cl)ccc2ncn(C)c(=O)c12 (centres unmarked) [Example 148]
Reply: class 1

Task item: Try the compound Cc1c(Nc2cc(F)cc(NS(=O)(=O)N3CCCC3)c2Cl)ccc2ncn(C)c(=O)c12 [Example 150]
Reply: class 1
